target: UniProt:P0DMS8
Sequence (P0DMS8 whole entry): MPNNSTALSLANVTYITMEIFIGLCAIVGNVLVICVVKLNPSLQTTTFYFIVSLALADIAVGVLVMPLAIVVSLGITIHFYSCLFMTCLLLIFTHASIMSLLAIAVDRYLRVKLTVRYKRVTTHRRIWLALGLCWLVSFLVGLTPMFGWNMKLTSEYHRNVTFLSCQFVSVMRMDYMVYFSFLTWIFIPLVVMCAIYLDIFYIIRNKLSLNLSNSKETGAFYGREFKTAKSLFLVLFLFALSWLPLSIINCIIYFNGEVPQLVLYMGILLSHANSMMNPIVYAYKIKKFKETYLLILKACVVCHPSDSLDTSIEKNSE
MEASUREMENT TYPE: Ki (nM)

MOLECULE: CCNC(=O)C1OC(n2cnc3c(N)nc(C#Cc4ccco4)nc32)C(O)C1O (centres undefined)
Ki / nM: 12
--
MOLECULE: CCNC(=O)C1OC(n2cnc3c(N)nc(C#Cc4ccc(CCC(=O)O)cc4)nc32)C(O)C1O (centres undefined)
Ki / nM: 42

P = CCNC(=O)C1OC(n2cnc3c(N)nc(C#CC(C)(O)c4ccccc4)nc32)C(O)C1O (centres undefined)
Q = CCNC(=O)C1OC(n2cnc3c(N)nc(C#Cc4ccccc4)nc32)C(O)C1O (centres undefined)
Could you determine which record has the numerically smaller Ki? Candidates: P and Q Bench note: the answer is the label of the chosen record. P
(P: 2.4 nM, Q: 6.2 nM)

1 = CCNC(=O)C1OC(n2cnc3c(N)nc(C#Cc4ccc(C(N)=O)cc4)nc32)C(O)C1O (centres undefined)
2 = CCNC(=O)[C@H]1O[C@@H](n2cnc3c(N)nc(C#C[C@@H](O)c4ccccc4)nc32)[C@H](O)[C@@H]1O [6R, (R)-PHPNECA]
3 = CCNC(=O)C1OC(n2cnc3c(N)nc(C#C[C@H](O)c4ccccc4)nc32)C(O)C1O (stereo partly drawn) [6S, (S)-PHPNECA]
4 = CCNC(=O)C1OC(n2cnc3c(N)nc(C#CCCCc4ccccc4)nc32)C(O)C1O (centres undefined)
5 = CCNC(=O)C1OC(n2cnc3c(N)nc(C#CC(C)O)nc32)C(O)C1O (centres undefined)
Endpoint returns the given molecules ordered by ascending Ki. A ranking is expressed here by listing the labels in the requested order. 3, 5, 2, 1, 4

====

Heads up, these molecules all have Ki values measured for Adenosine receptor A2a (Homo sapiens, UniProt P29274).
MEASUREMENT TYPE: Ki (nM)

Here is how some molecules turned out for Ki.
MOLECULE: CCNC(=O)[C@H]1O[C@@H](n2cnc3c(N)nc(C#C[C@@H](O)c4ccccc4)nc32)[C@H](O)[C@@H]1O [6R, (R)-PHPNECA]
MEASUREMENT TYPE: Ki
UNIT OF MEASURE: nM
VALUE: 39
//
MOLECULE: CCNC(=O)C1OC(n2cnc3c(N)nc(C#CCCCC#N)nc32)C(O)C1O (centres undefined)
MEASUREMENT TYPE: Ki
UNIT OF MEASURE: nM
VALUE: 25

I = CCNC(=O)C1OC(n2cnc3c(N)nc(C#Cc4ccc(C(N)=O)cc4)nc32)C(O)C1O (centres undefined)
II = CCNC(=O)C1OC(n2cnc3c(N)nc(C#C[C@H](O)c4ccccc4)nc32)C(O)C1O (stereo partly drawn) [6S, (S)-PHPNECA]
Could you determine which record has the numerically smaller Ki? Candidates: I and II Bench note: the answer is the label of the chosen record. II
(II: 2 nM, I: 470 nM)

====

Target chain: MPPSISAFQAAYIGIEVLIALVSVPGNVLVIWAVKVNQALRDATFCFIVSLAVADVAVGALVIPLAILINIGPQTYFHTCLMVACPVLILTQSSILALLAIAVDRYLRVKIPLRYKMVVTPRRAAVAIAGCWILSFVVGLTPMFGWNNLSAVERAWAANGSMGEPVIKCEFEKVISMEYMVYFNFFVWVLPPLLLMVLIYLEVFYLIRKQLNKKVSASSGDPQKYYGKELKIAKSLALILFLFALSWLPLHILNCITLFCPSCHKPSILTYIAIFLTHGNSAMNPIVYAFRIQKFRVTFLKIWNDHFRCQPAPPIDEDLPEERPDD
MEASUREMENT TYPE: Ki (nM)

Here is how some compounds turned out for Ki.
COMPOUND: CCNC(=O)C1OC(n2cnc3c(N)nc(C#Cc4ccc(CCC(=O)O)cc4)nc32)C(O)C1O (stereo unspecified)
VALUE: 1000

COMPOUND: CCNC(=O)C1OC(n2cnc3c(N)nc(C#CCCCC#N)nc32)C(O)C1O (stereo unspecified)
VALUE: 38

COMPOUND: CCNC(=O)C1OC(n2cnc3c(N)nc(C#CCC(C)O)nc32)C(O)C1O (stereo unspecified)
VALUE: 40

COMPOUND: CCNC(=O)[C@H]1O[C@@H](n2cnc3c(N)nc(C#C[C@@H](O)c4ccccc4)nc32)[C@H](O)[C@@H]1O [6R, (R)-PHPNECA]
VALUE: 1.9

1 = CCNC(=O)C1OC(n2cnc3c(N)nc(C#Cc4ccccc4)nc32)C(O)C1O (stereo unspecified)
2 = CCNC(=O)C1OC(n2cnc3c(N)nc(C#C[C@H](O)c4ccccc4)nc32)C(O)C1O (stereo partly drawn) [6S, (S)-PHPNECA]
In the pair 1 and 2 , the larger recorded Ki belongs to which? Bench note: the answer is the label of the chosen record. 1
